// provenance: PubChem BioAssay AID1159580

Recorded normalized growth values for a group of molecules are listed next.
- MEASUREMENT_NOTES: chemical genetic growth profiling, strain panel (AID 1159580);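 further: tested at 20 µM; growth read once vehicle control cultures reached saturation at 30 °C; 1 = growth at the plate median or of vehicle wells; lower values mean less growth of the strain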
- RUN_PARAMETERS: S. cerevisiae deletion strains, growth OD, locus YDL017W, strain CDC7, hits give low values
Screen size: about 5,500 compounds; about 2,000 (36%) were called active. Roughly 18% stayed inconclusive and do not appear here. Some of the results follow.
MEASURED_ENDPOINT: normalized growth

                                    molecule  measured
 0  Cc1cccc(N=NC(C(=O)C(F)(F)F)=C(O)c2cccs2)c1     0.986
 1  Cc1ccc(S(=O)(=O)Nc2nc(-c3ccc(C)c(Cl)c3)c(C)s2)cc1     0.991
 2  CCOC(=O)c1sc(S(C)=NC(=O)Nc2ccc(Cl)cc2)c2c1CCC=C2 (stereo not drawn)     0.979
 3  COc1ccc(Nc2nc(NC(=O)Nc3ccc(Cl)cc3)n[nH]2)cc1         1
 4  O=S(=O)(NCc1ccc(C(F)(F)F)cc1)c1cccc(C(F)(F)F)c1     0.989
 5             COc1ccc(-c2cn3cc(C)ccc3n2)cc1     0.987
 6  O=C(Nc1ccncc1)c1cc(-c2ccccc2)oc1C(F)(F)F     0.991
 7             Clc1ccccc1-c1csc(-c2cccnc2)n1     0.928
 8    O=[N+]([O-])c1ccsc1Oc1cccc(C(F)(F)F)c1     0.987
 9  FC(F)(F)c1cc(NC(=S)SCCSC(=S)Nc2cc(C(F)(F)F)cc(C(F)(F)F)c2)cc(C(F)(F)F)c1     0.991
10  CC(C)(C)C1=C(C#N)C(c2c(Cl)cccc2Cl)C(C#N)=C(N)O1 (stereo not drawn)      0.99
11  Cc1ccc(-c2nc(NS(=O)(=O)c3cccc4nonc34)sc2C)cc1Cl      0.97
12      Clc1ccc(CSc2nccn2-c2cc(Cl)ccc2Cl)cc1     0.969
13  CC1CCC(C(C)C)C(N(Cc2ccccc2)C(=O)c2ccccc2)C1 (stereo not drawn)     0.987
14  Cc1noc(C)c1S(=O)(=O)Nc1csc(C(F)(F)F)c1-c1ccccc1     0.979
15  O=S(=O)(NCc1ccc(C(F)(F)F)cc1)c1cc(Br)c(Br)s1     0.967
16              Clc1cc(Cl)cc(C=NCc2ccccc2)c1     0.951
17  O=C(Nc1cc(Cl)ccc1O)c1ccccc1CSc1ccc(Cl)cc1     0.986
18  Cc1ccc(NC(=S)C(C#N)C(=O)N2CCOCC2)c(C)c1 (stereo not drawn)     0.992
19    CN(C)c1ccc(/C=C/c2ccc3ccccc3[n+]2C)cc1     0.969
20  N#Cc1cccc(CSc2nc3ccc(C(F)(F)F)cc3[nH]2)c1     0.972
21  O=C(Oc1ccc2ccccc2c1C1SCCS1)c1ccc([N+](=O)[O-])o1     0.958
22   COc1ccc2c(c1)CCc1sc(NC(=O)c3ccco3)nc1-2     0.971

* * *

- MEASUREMENT_NOTES: chemical genetic growth profiling, strain panel (AID 1159580);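 further: tested at 20 µM; growth read once vehicle control cultures reached saturation at 30 °C; 1 = growth at the plate median or of vehicle wells; lower values mean less growth of the strain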
- RUN_PARAMETERS: S. cerevisiae deletion strains, growth OD, locus YGR078C, strain PAC10
Out of some 5,500 compounds screened, about 2,000 (36%) were called active. Roughly 18% stayed inconclusive and do not appear here. Cut-off read from the data, not from the text of the source: active = normalized growth mostly below about 0.91 (no sharp cut-off); inconclusive = no clear call, values can overlap the other calls; inactive = mostly above about 0.92. The list shows a part of the results.
Outcome codes: true (1) = active, false (0) = inactive

                                    molecule      group
 0  Cc1onc2c(=O)n(-c3ccccc3)nc(-c3ccccc3)c12  false (0)
 1  CCCCS(=N)(=O)CC[C@H](N)C(=O)O (some centres not stated)  false (0)
 2  O=S(=O)(NCc1ccc2c(c1)OCO2)c1ccc(F)c(Cl)c1  false (0)
 3           O=C1NN(c2ccccc2)C(=S)Nc2ccccc21  false (0)
 4  COc1c(C)c2c(c(O)c1C/C=C(\C)CCC(=O)O)C(=O)OC2   true (1)
 5  CN(C)c1ccc(-c2n[nH]c(=O)c3ccccc23)cc1[N+](=O)[O-]  false (0)
 6                     O=C1CCc2cccc3cccc1c23  false (0)
 7  Fc1ccc([C@@H]2CCNC[C@H]2COc2ccc3c(c2)OCO3)cc1  false (0)
 8           O=S(=O)(NCC1CC1)c1ccc(F)c(Cl)c1  false (0)
 9  Cc1nn(-c2ccccc2)nc1-c1nnc(-c2ccc(Cl)cc2)o1  false (0)
10  CCCN(CCC)S(=O)(=O)c1ccc(C(=O)NCC(=O)O)cc1  false (0)
11  CCOC(=O)c1sc2sc(C(=O)c3ccc(Cl)cc3)c(C)c2c1C  false (0)

* * *

Recorded normalized growth values for a group of compounds are listed next.
- MEASUREMENT_NOTES: chemical genetic growth profiling, strain panel (AID 1159580);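 further: tested at 20 µM; growth read once vehicle control cultures reached saturation at 30 °C; 1 = growth at the plate median or of vehicle wells; lower values mean less growth of the strain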
- RUN_PARAMETERS: S. cerevisiae deletion strains, growth OD, locus YLR113W, strain HOG1, hits give low values
About 2,000 (36%) of roughly 5,500 compounds were called active. Inconclusive results (about 18%) are left out. Some of the results follow.
MEASURED_ENDPOINT: normalized growth

                                    compound                   measured
 0  CC(=O)C1CC[C@H]2C3CC[C@H]4C[C@H](O)CC[C@]4(C)C3CC[C@]12C (some centres not stated)            1.01 (inactive)
 1           Clc1ccc(Oc2ccnc3cc(Cl)ccc23)cc1             0.379 (active)
 2              Clc1cc(Cl)cc(C=NCc2ccccc2)c1             0.375 (active)
 3          Nc1ccc(Oc2ccc(Cl)cc2C2CCCCC2)nc1           0.705 (inactive)
 4    CN(C)c1ccc(/C=C/c2ccc3ccccc3[n+]2C)cc1             0.677 (active)
 5  CC(=O)Oc1ccc2c(c1)CCC1C2CC[C@]2(C)C(=O)CCC12 (some centres not stated)           0.991 (inactive)
 6           Cc1nnc(NS(=O)(=O)c2ccc(N)cc2)s1           0.966 (inactive)
 7  C[C@]12CCC3c4ccc(OC(=O)c5ccccc5)cc4CCC3C1CCC2=O (some centres not stated)               1 (inactive)
 8  Cc1ccc(S(=O)(=O)Nc2nc(-c3ccc(C)c(Cl)c3)c(C)s2)cc1  1.41 [resistant] (active)
 9         N#Cc1ccc(Oc2sccc2[N+](=O)[O-])cc1              0.76 (active)
10  CC(=O)C1CCC2C3CCC4C[C@H](O)CCC4(C)C3C[C@H](O)C12C (some centres not stated)            1.12 (inactive)
11                                NCCCC(=O)O           0.996 (inactive)

* * *

- MEASUREMENT_NOTES: chemical genetic growth profiling, strain panel (AID 1159580);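 further: tested at 20 µM; growth read once vehicle control cultures reached saturation at 30 °C; 1 = growth at the plate median or of vehicle wells; lower values mean less growth of the strain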
- RUN_PARAMETERS: S. cerevisiae deletion strains, growth OD, locus YNL067W, strain RPL9B, hits give low values
Hit rate of the full screen: of about 5,500 compounds, about 2,000 (36%) were called active. About 18% were inconclusive and are not listed. This is one part of the list.
MEASURED_ENDPOINT: normalized growth

MOLECULE	MEASURED_ENDPOINT	MEASURED
Cc1cc(CC(=O)O)n(C)c1C(=O)c1ccc(Cl)cc1	normalized growth	0.997
NC(N)=NCCCCN=C(N)N	normalized growth	0.972
C=C[C@@]1(C)CC(=O)[C@@]2(O)[C@](C)(O1)[C@@H](OC(C)=O)[C@@H](O)C1C(C)(C)CC[C@H](O)[C@@]12C (stereo partly specified)	normalized growth	1.01
COc1ccc2c(=O)c(OC)c(-c3ccccc3)oc2c1	normalized growth	0.856
NC(N)=NCCN1CCCCCCC1	normalized growth	1
COc1ccc2oc(-c3ccccc3)c(OC)c(=O)c2c1	normalized growth	0.837
CCCCCCCCCCCC(=O)OCC(COP(=O)(O)OCC(O)COP(=O)(O)OCC(COC(=O)CCCCCCCCCCC)OC(=O)CCCCCCCCCCC)OC(=O)CCCCCCCCCCC (stereo unspecified)	normalized growth	0.891
O=C(O)C1CCCNC1 (stereo unspecified)	normalized growth	1.01
CCCn1c(=O)c2[nH]c(C3CCCC3)nc2n(CCC)c1=O	normalized growth	0.986
CN=C(N)NCCCC(N)C(=O)O (stereo unspecified)	normalized growth	1.02
CC1CCC(NC(=O)N(CCCl)N=O)CC1 (stereo unspecified)	normalized growth	0.926
